Provide the reported growth at 0.1 µM of each item.
# Tested on: DU-145
# procedureSummary: Growth inhibition of human DU145 cells assessed as cell growth at 0.1 uM incubated for 48 hrs by sulforhodamine B assay relative to control
# Assay type: functional
# appliedConditions: DU-145, 48 h, read-out: Activity
The reply must contain the numeric value and, after it, the unit.

Would you please look over these solved cases?
O=C(Nc1cccc(-n2cc(-c3ccncc3)c(-c3cc(O)cc(Cl)c3)n2)c1)Nc1ccc(Cl)c(Cl)c1: 104%
O=C(Nc1cccc(-n2cc(-c3ccncc3)c(-c3cc(O)cc(Cl)c3)n2)c1)c1cc(C(F)(F)F)cc(C(F)(F)F)c1: 99%
O=C(Nc1cccc(-n2cc(-c3ccncc3)c(-c3cc(O)cc(Cl)c3)n2)c1)Nc1ccc(Cl)c(C(F)(F)F)c1: 99%

Moving on to another compound below.
Annotate the compound O=C(Nc1cccc(-n2cc(-c3ccncc3)c(-c3cc(O)cc(Cl)c3)n2)c1)c1ccc(N2CCOCC2)c(C(F)(F)F)c1 with its measured growth at 0.1 µM.
108%

* * *

# Tested on: MCF7
# procedureSummary: Growth inhibition of human MCF7 cells incubated for 48 hrs by sulforhodamine B assay
# Assay type: functional, cell-based
# appliedConditions: MCF7, 48 h, read-out: TGI
Please go through the items and note down their TGI.
Answers are plain numbers, in µM.

COc1cc(Cl)cc(-c2nn(-c3cccc(NC(=O)Nc4cccc(C(F)(F)F)c4)c3)cc2-c2ccncc2)c1: 75.7

Kindly consider the entry below.
Specify measured TGI for COc1cc(Cl)cc(-c2nn(-c3cccc(NC(=O)Nc4ccc(Cl)c(C(F)(F)F)c4)c3)cc2-c2ccncc2)c1 .
11

* * *

# System: U-251
# procedureSummary: Growth inhibition of human U251 cells assessed as cell growth at 100 uM incubated for 48 hrs by sulforhodamine B assay relative to control
# Type: functional
# appliedConditions: U-251, 48 h, read-out: Activity
Could you mark each record Y if its growth at 100 µM falls strictly under -60%, and N if it equals or exceeds it?

Example cases with answers are listed next.
COc1cc(Cl)cc(-c2nn(-c3cccc(NC(=O)c4cccc(C(F)(F)F)c4)c3)cc2-c2ccncc2)c1: N
O=C(Nc1cccc(-n2cc(-c3ccncc3)c(-c3cc(O)cc(Cl)c3)n2)c1)Nc1ccc(Cl)c(Cl)c1: N
COc1cc(Cl)cc(-c2nn(-c3cccc(NC(=O)Nc4ccc(Cl)c(C(F)(F)F)c4)c3)cc2-c2ccncc2)c1: Y
COc1cc(Cl)cc(-c2nn(-c3cccc(NC(=O)c4ccc(N5CCOCC5)c(C(F)(F)F)c4)c3)cc2-c2ccncc2)c1: N
O=C(Nc1cccc(-n2cc(-c3ccncc3)c(-c3cc(O)cc(Cl)c3)n2)c1)c1ccc(N2CCOCC2)c(C(F)(F)F)c1: Y

Find out if reported growth at 100 µM for O=C(Nc1cccc(-n2cc(-c3ccncc3)c(-c3cc(O)cc(Cl)c3)n2)c1)Nc1ccc(Cl)c(C(F)(F)F)c1 is less than -60%
Y

* * *

# System: SNB-75
# procedureSummary: Growth inhibition of human SNB75 cells incubated for 48 hrs by sulforhodamine B assay
# Type: functional, cell-based
# appliedConditions: SNB-75, 48 h, read-out: pTGI (converted)
Give measured TGI for each item. Keep answers brief.

O=C(Nc1cccc(-n2cc(-c3ccncc3)c(-c3cc(O)cc(Cl)c3)n2)c1)c1cc(C(F)(F)F)cc(C(F)(F)F)c1: > 100 µM
COc1cc(Cl)cc(-c2nn(-c3cccc(NC(=O)Nc4cc(C(F)(F)F)cc(C(F)(F)F)c4)c3)cc2-c2ccncc2)c1: 5.89 µM
COc1cc(Cl)cc(-c2nn(-c3cccc(NC(=O)c4ccc(N5CCOCC5)c(C(F)(F)F)c4)c3)cc2-c2ccncc2)c1: > 100 µM

Shift focus to the following entry.
Identify measured TGI obtained with SNB-75 for COc1cc(Cl)cc(-c2nn(-c3cccc(NC(=O)Nc4ccc(Cl)c(C(F)(F)F)c4)c3)cc2-c2ccncc2)c1 .
11.2 µM

* * *

# Test system: COLO 205
# procedureSummary: Growth inhibition of human COLO205 cells assessed as cell growth at 100 uM incubated for 48 hrs by sulforhodamine B assay relative to control
# Type: functional
# appliedConditions: COLO 205, 48 h, read-out: Activity
measurementName: growth at 100 µM (%)
Numbers only, in %.

Use these answered entries as a reference point.
O=C(Nc1cccc(-n2cc(-c3ccncc3)c(-c3cc(O)cc(Cl)c3)n2)c1)Nc1ccc(Cl)c(C(F)(F)F)c1: -77
COc1cc(Cl)cc(-c2nn(-c3cccc(NC(=O)Nc4ccc(Cl)c(C(F)(F)F)c4)c3)cc2-c2ccncc2)c1: -79
COc1cc(Cl)cc(-c2nn(-c3cccc(NC(=O)Nc4cc(C(F)(F)F)cc(C(F)(F)F)c4)c3)cc2-c2ccncc2)c1: -68
COc1cc(Cl)cc(-c2nn(-c3cccc(NC(=O)c4cccc(C(F)(F)F)c4)c3)cc2-c2ccncc2)c1: 45

Consider now this further compound.
Item O=C(Nc1cccc(-n2cc(-c3ccncc3)c(-c3cc(O)cc(Cl)c3)n2)c1)Nc1ccc(Cl)c(Cl)c1 : provide growth at 100 µM
-88

* * *

Please provide measured growth at 10 µM for the entries that follow.
# Test system: RPMI-8226
# procedureSummary: Growth inhibition of human RPMI8226 cells assessed as cell growth at 10 uM incubated for 48 hrs by sulforhodamine B assay relative to control
# Assay type: functional
# appliedConditions: RPMI-8226, 48 h, read-out: Activity
Numbers only, in %.

Some compounds with recorded growth at 10 µM:
COc1cc(Cl)cc(-c2nn(-c3cccc(NC(=O)Nc4cccc(C(F)(F)F)c4)c3)cc2-c2ccncc2)c1: -14.2
O=C(Nc1cccc(-n2cc(-c3ccncc3)c(-c3cc(O)cc(Cl)c3)n2)c1)c1cc(C(F)(F)F)cc(C(F)(F)F)c1: 32.1
O=C(Nc1cccc(-n2cc(-c3ccncc3)c(-c3cc(O)cc(Cl)c3)n2)c1)Nc1ccc(Cl)c(C(F)(F)F)c1: 13.8

Here is the next item to consider.
Look up and state reported growth at 10 µM for COc1cc(Cl)cc(-c2nn(-c3cccc(NC(=O)Nc4ccc(Cl)c(C(F)(F)F)c4)c3)cc2-c2ccncc2)c1
-29.1

* * *

# testedSystem: Serine/threonine-protein kinase B-raf (Homo sapiens, UniProt P15056, V600E)
# Sequence (P15056 2-766 V600E limits assumed): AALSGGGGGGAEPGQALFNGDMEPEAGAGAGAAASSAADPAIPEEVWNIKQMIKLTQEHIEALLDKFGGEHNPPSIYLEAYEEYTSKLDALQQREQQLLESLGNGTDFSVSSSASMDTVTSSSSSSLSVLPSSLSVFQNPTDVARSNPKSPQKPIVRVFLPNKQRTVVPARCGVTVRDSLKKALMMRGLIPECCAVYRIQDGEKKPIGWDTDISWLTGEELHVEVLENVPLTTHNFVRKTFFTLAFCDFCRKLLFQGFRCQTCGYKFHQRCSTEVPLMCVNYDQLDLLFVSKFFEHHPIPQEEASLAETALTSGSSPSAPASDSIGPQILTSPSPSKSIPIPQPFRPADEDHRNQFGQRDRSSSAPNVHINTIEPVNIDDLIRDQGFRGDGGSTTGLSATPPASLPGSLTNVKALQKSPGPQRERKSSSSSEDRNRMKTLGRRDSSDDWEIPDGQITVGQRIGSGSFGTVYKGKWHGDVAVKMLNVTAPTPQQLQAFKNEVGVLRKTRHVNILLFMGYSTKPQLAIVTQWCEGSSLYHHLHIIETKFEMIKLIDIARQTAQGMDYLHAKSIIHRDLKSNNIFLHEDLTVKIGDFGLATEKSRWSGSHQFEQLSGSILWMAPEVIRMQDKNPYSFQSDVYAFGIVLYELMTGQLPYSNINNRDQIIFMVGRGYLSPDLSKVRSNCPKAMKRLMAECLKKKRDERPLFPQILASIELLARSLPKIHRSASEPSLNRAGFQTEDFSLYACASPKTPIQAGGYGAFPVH
# procedureSummary: Inhibition of human BRAF V600E mutant using MEK1 (K97R) as substrate after 40 mins in presence of [gamma33P]ATP by scintillation counting method
measurementName: IC50 (nM)
Answers are plain numbers, in nM.

Identify measured IC50 obtained with Serine/threonine-protein kinase B-raf (Homo sapiens, UniProt P15056, V600E) for COc1cc(Cl)cc(-c2nn(-c3cccc(NC(=O)Nc4cc(C(F)(F)F)cc(C(F)(F)F)c4)c3)cc2-c2ccncc2)c1 .
390

* * *

# System: MCF7
# procedureSummary: Growth inhibition of human MCF7 cells incubated for 48 hrs by sulforhodamine B assay
# Type: functional, cell-based
# appliedConditions: MCF7, 48 h, read-out: pTGI (converted)
measurementName: TGI

Some compounds with known TGI results, for comparison:
COc1cc(Cl)cc(-c2nn(-c3cccc(NC(=O)Nc4cc(C(F)(F)F)cc(C(F)(F)F)c4)c3)cc2-c2ccncc2)c1: 9.33 µM
O=C(Nc1cccc(-n2cc(-c3ccncc3)c(-c3cc(O)cc(Cl)c3)n2)c1)c1cc(C(F)(F)F)cc(C(F)(F)F)c1: > 100 µM
O=C(Nc1cccc(-n2cc(-c3ccncc3)c(-c3cc(O)cc(Cl)c3)n2)c1)Nc1ccc(Cl)c(C(F)(F)F)c1: 8.51 µM

Next item in the queue.
Retrieve TGI measured for COc1cc(Cl)cc(-c2nn(-c3cccc(NC(=O)c4cccc(C(F)(F)F)c4)c3)cc2-c2ccncc2)c1 and print it.
> 100 µM

* * *

Kindly state growth at 10 µM for each of the entries shown.
# Tested on: CAKI-1
# procedureSummary: Growth inhibition of human Caki1 cells assessed as cell growth at 10 uM incubated for 48 hrs by sulforhodamine B assay relative to control
# Type: functional
# appliedConditions: CAKI-1, 48 h, read-out: Activity
One number for each entry, in %.

O=C(Nc1cccc(-n2cc(-c3ccncc3)c(-c3cc(O)cc(Cl)c3)n2)c1)c1ccc(N2CCOCC2)c(C(F)(F)F)c1: 14.8

Give growth at 10 µM for each of the items listed below.
1. COc1cc(Cl)cc(-c2nn(-c3cccc(NC(=O)Nc4cc(C(F)(F)F)cc(C(F)(F)F)c4)c3)cc2-c2ccncc2)c1
2. COc1cc(Cl)cc(-c2nn(-c3cccc(NC(=O)Nc4ccc(Cl)c(Cl)c4)c3)cc2-c2ccncc2)c1
3. O=C(Nc1cccc(-n2cc(-c3ccncc3)c(-c3cc(O)cc(Cl)c3)n2)c1)Nc1ccc(Cl)c(C(F)(F)F)c1

[8.99, 7.49, 29.1]
